Ratio (2 h:72 h) values, listed per item
Test system: lymphocytes
Assay: Proliferation assay (BrdU incorporation, phytohemagglutanin-stimulated lymphocytes)
Format: cell-based, mammalian
Conditions: ratio of IC50 at 2 h to IC50 at 72 h; lower = better uptake and drug release
Respond with the number and no other words.

Field: example entries. Status: answers known.
# compound, target_of_assay, observed
records = [
    ("COc1c(C)c2c(c(O)c1C/C=C(\\C)CCC(=O)OC(COCCCCOCC(CN1CCOCC1)OC(=O)CC/C(C)=C/Cc1c(O)c3c(c(C)c1OC)COC3=O)CN1CCOCC1)C(=O)OC2 (stereo not shown)", "lymphocytes", 1.6),
    ("CCOC(=O)CC/C(C)=C/Cc1c(OC)c(C)c2c(c1OC(=O)CCC(=O)O[C@@H]1C(N(C)C)C[C@@H](C)O[C@H]1O[C@@H]1[C@@H](C)[C@H](O[C@H]3C[C@@](C)(OC)[C@@H](O)[C@H](C)O3)[C@@H](C)C(=O)O[C@H](CC)[C@@](C)(O)[C@H](O)[C@@H](C)N(C)C[C@H](C)C[C@@]1(C)O)C(=O)OC2 (stereo partly shown)", "lymphocytes", 1.9),
    ("COc1c(C)c2c(c(O)c1C/C=C(\\C)CCC(=O)O)C(=O)OC2 [Mycophenolic acid, reference compound]", "lymphocytes", 4.63),
    ("CC[C@H]1OC(=O)[C@H](C)[C@@H](O)[C@H](C)[C@@H](O[C@@H]2O[C@H](C)C[C@@H](N(C)CCOC(=O)CC/C(C)=C/Cc3c(O)c4c(c(C)c3OC)COC4=O)[C@@H]2N(C)C)[C@](C)(O)C[C@@H](C)CN(C)[C@H](C)[C@@H](O)[C@]1(C)O", "lymphocytes", 1.45),
    ("CC[C@H]1OC(=O)[C@H](C)[C@@H](O[C@H]2C[C@@](C)(OC)[C@@H](O)[C@H](C)O2)[C@H](C)[C@@H](O[C@@H]2O[C@H](C)C[C@@H](OC(=O)CC/C(C)=C/Cc3c(O)c4c(c(C)c3OC)COC4=O)[C@@H]2N2CCOCC2)[C@](C)(O)C[C@@H](C)CN(C)[C@H](C)[C@@H](O)[C@]1(C)O", "lymphocytes", 3.53),
]

Query block: Quick check: Ratio (2 h:72 h) of CC[C@H]1OC(=O)[C@H](C)C(=O)[C@H](C)[C@@H](O[C@@H]2O[C@H](C)C[C@H](N(C)C)[C@H]2OC(=O)CC/C(C)=C/Cc2c(O)c3c(c(C)c2OC)COC3=O)[C@](C)(O)C[C@@H](C)CN(C)[C@H](C)[C@@H](O)[C@]1(C)O ?
Result block: 2.63

Query block: Repeat for the following compound: COc1c(C)c2c(c(O)c1C/C=C(\C)CCC(=O)OCCN1CCOCC1)C(=O)OC2 [Mycophenolate mofetil, reference compound]
Result block: 4.5
